The entries below come with measured GI50 values attached.
# Tested on: SNB-75
# PROTOCOL TEXT: NCI tumour cell line growth inhibition, 48 h
Activity calls are given as the source filed them. Cut-off read from the data, not from the text of the source: active = GI50 up to about 1.1 µM and inactive = higher.

>>> endpoint_result("CC(C)CC(NC(=O)c1cccc(O)c1O)C(=O)NCc1cc(CNC(=O)C(CC(C)C)NC(=O)c2cccc(O)c2O)cc(CNC(=O)C(CC(C)C)NC(=O)c2cccc(O)c2O)c1 (centres undefined)")
"20.6 µM (inactive)"
>>> endpoint_result("C/C(=N\\NC(=S)N1CCN(c2ccccn2)CC1)c1cccc2cccnc12")
"13.1 µM (inactive)"

Task: Which measured GI50 value corresponds to COC(=O)C1(C(=O)OC)N=C(C)OC1C(C)C (centres undefined) ?
Result: > 100 µM (inactive)

Task: Now give it for C=C1C(=O)O[C@H]2/C=C(/C)C3=CC(=O)[C@@](C)(C[C@@H](OC(=O)/C(C)=C\C)C12)O3 (some centres undefined) too.
Result: 8.69 µM (inactive)

----------
# Tested on: NCI/ADR-RES
# PROTOCOL TEXT: NCI tumour cell line growth inhibition, 48 h
Calls of active or inactive are those of the source. No stated cut-off is given here; in the data, active = GI50 up to about 1.1 µM and inactive = higher.
The entries below come with measured GI50 values attached.

// worked examples, GI50 included
>>> endpoint_result("CCOC(=O)CSc1nnc2cc(CN3CCCC3)c(-c3ccc(Cl)cc3)nn12")
"> 100 µM (inactive)"
>>> endpoint_result("CCOC1CC(C)N(C(=O)c2ccccc2)O1 (stereo not given)")
"> 100 µM (inactive)"
>>> endpoint_result("COc1cc(S(=O)(=O)Nc2ccc(-c3csc(N4C(=O)C(C)SC4c4cccs4)n3)cc2)ccc1Cl (stereo not given)")
"> 100 µM (inactive)"
>>> endpoint_result("CN1CCN(c2ccncc2S(=O)(=O)N2CCN(C)CC2)CC1")
"> 100 µM (inactive)"

# ---- query molecule ----
Task: Which measured GI50 value corresponds to Cc1c(O)c(OC2OC(CO)C(O)C(O)C2O)cc2c1CC[C@@H]1C2(C)C(=O)C[C@]2(C)[C@@H]([C@@](C)(O)C(O)CCC(C)(C)O)[C@H](O)C[C@@]12C (stereo not given in full) ?
Result: > 100 µM (inactive)

----------
# Tested on: OVCAR-8
# PROTOCOL TEXT: NCI tumour cell line growth inhibition, 48 h
Active and inactive are the calls of the source. Cut-off read from the data, not from the text of the source: active = GI50 up to about 1.1 µM and inactive = higher.
VALUE KIND: GI50

// worked examples, GI50 included
>>> endpoint_result("O=C(Nc1ccc(C(F)(F)F)cc1[N+](=O)[O-])C(=O)C(C(=O)c1ccc2ccccc2c1)C1OC(=O)c2ccccc21 (stereo not given)")
"5.07 µM (inactive)"
>>> endpoint_result("CC1C2CC(CC2O)C1(C)C (stereo not given)")
"> 100 µM (inactive)"
>>> endpoint_result("COc1cc2c(cc1O)C=NCC2")
"> 100 µM (inactive)"
>>> endpoint_result("Cc1ccnc(NS(=O)(=O)c2ccc(NC3=CC(=O)C(=O)c4ccccc43)cc2)n1")
"> 100 µM (inactive)"
>>> endpoint_result("Cc1ccc(S(=O)(=O)OC[C@@H]2CO2)cc1")
"> 100 µM (inactive)"

Task: Find GI50 (OVCAR-8) for the entry CCOC(=O)NC1=C(N2CC2)C(=O)C(NC(=O)OCC)=C(N2CC2)C1=O
Result: 3.73 µM (inactive)

Task: Now give it for COC(=O)C1CC(C=[N+](C)C)=C(SC)N1C(=O)OCc1ccccc1 (stereo not given) too.
Result: > 100 µM (inactive)

Task: Now give it for NC1=NN(c2ccccc2)C(=O)C1/C(=N\NC(=O)c1cc2ccccc2cc1O)C(=O)Nc1cccc(C(F)(F)F)c1 (stereo not given) too.
Result: 24.1 µM (inactive)

Task: Now give it for NC(=O)c1c[se]c(C2OC(COP(=O)(O)CP(=O)(O)OCC3OC(n4cnc5c(N)ncnc54)C(O)C3O)C(O)C2O)n1 (stereo not given) too.
Result: 87.9 µM (inactive)

Task: Now give it for CN(C)C(=S)/N=c1\ss/c(=N/c2ccccc2)n1C too.
Result: 73.6 µM (inactive)
